assay-system: human CDK4 and genetically truncated (1-264) cyclin D3 (Homo sapiens, UniProt P11802)
Sequence (P11802 whole entry, the tested form may be a part): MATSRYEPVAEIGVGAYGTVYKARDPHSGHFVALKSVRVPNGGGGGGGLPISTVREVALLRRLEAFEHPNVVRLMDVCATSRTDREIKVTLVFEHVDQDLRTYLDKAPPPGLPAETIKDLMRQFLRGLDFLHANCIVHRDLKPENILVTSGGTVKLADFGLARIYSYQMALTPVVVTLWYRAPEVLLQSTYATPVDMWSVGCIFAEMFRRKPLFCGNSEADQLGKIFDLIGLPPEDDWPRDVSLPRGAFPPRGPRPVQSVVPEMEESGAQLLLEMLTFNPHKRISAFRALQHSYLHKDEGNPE
Sequence (P30281 1-264 partner): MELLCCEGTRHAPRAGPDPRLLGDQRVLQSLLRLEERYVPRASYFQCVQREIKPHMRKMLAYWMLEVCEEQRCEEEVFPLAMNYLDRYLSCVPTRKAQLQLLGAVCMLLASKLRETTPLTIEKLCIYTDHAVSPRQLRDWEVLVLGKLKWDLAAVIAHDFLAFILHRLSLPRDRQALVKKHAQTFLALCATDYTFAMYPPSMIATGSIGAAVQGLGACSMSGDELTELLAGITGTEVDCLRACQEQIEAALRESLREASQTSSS
assay-summary: Inhibition of CDK4/Cyclin D Retinoblastoma Kinase Activity
measurement-parameters: apparent Ki, CDK4/truncated cyclin D3, Rb fragment substrate, 25 μM ATP
pKi: −log10 of the molar value. Counter-ions that a name gives are not always drawn.
reported-metric: pKi

Worked cases, pKi given:
Nc1nc(NC2CCN(S(=O)(=O)c3ccc(Br)s3)CC2)sc1C(=O)c1c(F)cccc1F [Example F50]    8.49
Nc1nc(NC2CCN(C(=O)c3ccc(Br)cc3)C2)sc1C(=O)c1c(F)cccc1F (stereo not drawn) [Example C18]    6.68
COC(=O)c1ccc(C(=O)N2CCC(Nc3nc(N)c(C(=O)c4c(F)cccc4F)s3)CC2)cc1 [Example C4]    7.96
Nc1ccc(S(=O)(=O)N2CCC(Nc3nc(N)c(C(=O)c4c(F)cccc4F)s3)CC2)cn1 [Example G8]    8.72
Nc1nc(NC2CCN(S(=O)(=O)CCN(CC3CC3)CC3CC3)CC2)sc1C(=O)c1c(F)cccc1F [Example K54]    8.89
CN(C)CCOc1nc(S(=O)(=O)N2CCC(Nc3nc(N)c(C(=O)c4c(F)cccc4F)s3)CC2)cn1C [Example H25, Hydrochloride Salt]    7.08

[A] Nc1nc(NC2CCN(S(N)(=O)=O)CC2)sc1C(=O)c1c(F)cccc1F [Example E4]
[B] CC1(C)CN=C(c2ccc(S(=O)(=O)N3CCC(Nc4nc(N)c(C(=O)c5c(F)cccc5F)s4)CC3)cc2)N1 [Example J2]
Problem: Could you point out whether the larger pKi belongs to A or to B ? Field: selected label. Fill in the label of the entry you choose.
Solution: B
(B: 9.74, A: 7.85)

[I] CC(C)NCCOc1ccc(S(=O)(=O)N2CCC(Nc3nc(N)c(C(=O)c4c(F)cccc4F)s3)CC2)cn1 [Example H19, Hydrochloride Salt]
[II] Nc1nc(NC2CCN(S(=O)(=O)c3ccc(SCCc4ccccn4)nc3)CC2)sc1C(=O)c1c(F)cccc1F [Example L3, Hydrochloride]
Problem: Could you point out whether the larger pKi belongs to I or to II ? Field: selected label. Fill in the label of the entry you choose.
Solution: I
(I: 9.28, II: 8.92)

[1] Nc1nc(NC2CCN(C(=O)CCN3CCCCC3)CC2)sc1C(=O)c1c(F)cccc1F [Example D3]
[2] CC(C)(C)NCCOc1ccc(S(=O)(=O)N2CCC(Nc3nc(N)c(C(=O)c4c(F)cccc4F)s3)CC2)cn1 [Example H20, Hydrochloride Salt]
Problem: Please let me know which one, 1 or 2 , has a lower measured pKi value. Field: selected label. Fill in the label of the entry you choose.
Solution: 1
(1: 7.15, 2: 9.29)
